- Tested on: U2OS
- experimental.protocol: Multiplex assay against U2OS
- Format: toxicity, cell-based
- assay.conditions: human, 48 h, 10 µM, compound concentration 10 uM, replicate 2
Can you tell me Population Mitochondria Different-Phenotype (%) for the items I'm about to list?
One number for each entry, in %.

Below, each entry is followed by its recorded Population Mitochondria Different-Phenotype (%) result.
> print(dat)
                            molecule.smiles  subject.of.test  measured.number
1  CC(C)c1noc(N2CCC(COc3ccc(-c4ccc(S(C)(=O)=O)cc4)nc3)CC2)n1             U2OS                4
2  COc1ccccc1N1CCN(C[C@@H](C(=O)NC(C)(C)C)c2ccccc2)CC1.Cl.Cl             U2OS               29
3  CCCCC1=NC2(CCCC2)C(=O)N1Cc1ccc(-c2ccccc2-c2nnn[nH]2)cc1             U2OS                7
4  NCCc1cn(S(=O)(=O)c2c(Cl)nc3sccn23)c2ccccc12.O=C(O)C(=O)O             U2OS               65
5  COc1cccc2c1c(NS(=O)(=O)c1ccc(Cl)s1)nn2Cc1cccc(CNC(=O)C(C)(C)O)c1             U2OS                3
6  Cc1cccc(NC(=O)CN2CCC(c3ccccn3)CC2)c1.Cl.Cl             U2OS                4

Next up:
Can you look up the measured Population Mitochondria Different-Phenotype (%) of "Cc1cnc(-c2cc(N3CCN(C(=O)CCS(C)(=O)=O)CC3)ncc2Cl)c(C)c1" for me? 7
